Catalogue of IC50 values
Target: alanyl aminopeptidases (APN) (Homo sapiens, UniProt P15144)
Sequence (P15144 whole entry, species assumed): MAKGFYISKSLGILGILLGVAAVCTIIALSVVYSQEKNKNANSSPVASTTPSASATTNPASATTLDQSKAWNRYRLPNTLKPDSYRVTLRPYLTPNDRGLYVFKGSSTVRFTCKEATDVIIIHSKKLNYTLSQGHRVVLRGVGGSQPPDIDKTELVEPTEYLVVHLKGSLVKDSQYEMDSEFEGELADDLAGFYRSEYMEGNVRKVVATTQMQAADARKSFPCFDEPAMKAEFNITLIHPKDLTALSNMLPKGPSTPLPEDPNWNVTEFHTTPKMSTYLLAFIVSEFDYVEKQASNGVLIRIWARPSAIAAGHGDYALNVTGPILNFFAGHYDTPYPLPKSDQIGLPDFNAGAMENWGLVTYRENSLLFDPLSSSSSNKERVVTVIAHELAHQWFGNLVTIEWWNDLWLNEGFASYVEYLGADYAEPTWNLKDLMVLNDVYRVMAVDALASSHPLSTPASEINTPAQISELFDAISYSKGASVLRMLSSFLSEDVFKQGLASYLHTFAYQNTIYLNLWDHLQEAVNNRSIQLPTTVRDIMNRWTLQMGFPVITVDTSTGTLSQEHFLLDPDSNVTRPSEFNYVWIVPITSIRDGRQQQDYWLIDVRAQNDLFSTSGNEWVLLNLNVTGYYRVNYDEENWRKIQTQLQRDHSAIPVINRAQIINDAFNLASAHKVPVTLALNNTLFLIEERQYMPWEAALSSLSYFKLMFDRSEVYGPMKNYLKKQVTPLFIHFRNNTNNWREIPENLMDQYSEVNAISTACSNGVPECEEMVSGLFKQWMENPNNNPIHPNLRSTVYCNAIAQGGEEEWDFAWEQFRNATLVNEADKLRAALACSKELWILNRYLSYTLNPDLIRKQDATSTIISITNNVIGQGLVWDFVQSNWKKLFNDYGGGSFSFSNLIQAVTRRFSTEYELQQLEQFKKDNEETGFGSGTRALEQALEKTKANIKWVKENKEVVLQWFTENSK
Assay: Inhibition of alanyl aminopeptidase enzymatic activity, fluorogenic substrate (Ala)2-rhodamine 110
Type: biochemical
Conditions: Table 4, unstarred values; read-out: IC50APN
MEASUREMENT_LABEL: IC50 (µM)

>>> measured("COc1ccc(N(C(C)C(=O)N/N=C/c2ccco2)S(C)(=O)=O)cc1 (centres unmarked)")
47
>>> measured("Cc1ccc(/C=N/NC(=O)c2ccc(N3CCCC3=O)cc2)o1")
44.2
>>> measured("O=C(CCC(=O)Nc1ccccc1)N/N=C/c1ccco1")
41.1
>>> measured("Cc1nn(-c2ccccc2)c(C)c1-c1cc(C(=O)N/N=C/c2ccco2)[nH]n1")
27.4
>>> measured("O=C(N/N=C/c1ccco1)c1cccc(Br)c1")
62.7
>>> measured("O=C(N/N=C/c1cc(Br)ccc1OC(=O)c1ccc([N+](=O)[O-])cc1)/C(=C\\c1ccc2c(c1)OCO2)NC(=O)c1ccccc1")
54.2
>>> measured("CCc1cccc(CC)c1NC(=S)N/N=C1\\C(=O)N(CN2CC(C)CC(C)C2)c2ccccc21 (centres unmarked)")
6.7
>>> measured("C/C(CC1N=NC([N+](=O)[O-])=N1)=N/NC(=O)COc1ccccc1[N+](=O)[O-] (centres unmarked)")
3.4
>>> measured("COc1ccc(/C=N/NC(=O)C2=C(C)Nc3ccccc3S2)cc1Cn1nc(C)c(Br)c1C")
4.8
>>> measured("O=C(N/N=C/c1ccco1)c1ccc(NC(=O)c2ccccc2Cl)cc1")
32.5
>>> measured("Cc1ccc(C)n1-c1cccc(C(=O)N/N=C/c2cc(Br)c(O)c(Br)c2)c1")
24.9
>>> measured("O=C(NN=C(/C=C/c1ccccc1)c1ccccc1)c1cc2ccccc2cc1O")
13.7
>>> measured("CC(N/N=C1/SC(CC(=O)O)C(=O)N1c1ccccc1)c1ccco1 (centres unmarked)")
28.6
>>> measured("Cc1ccc(S(=O)(=O)N2CCC(C(=O)N/N=C/c3ccco3)CC2)cc1")
69.3
>>> measured("Cc1ccc(/C=N/NC(=O)COc2ccccc2C)o1")
22.2
>>> measured("COC(=O)N/N=C(C)\\C=C\\c1ccco1")
13.5
>>> measured("CCc1ccc(OCC(=O)N/N=C\\c2ccco2)c([N+](=O)[O-])c1")
25.1
>>> measured("O=C(N/N=C/C=C\\c1ccco1)c1cccs1")
62.7
>>> measured("CCOc1ccc(-c2cc(C(=O)N/N=C/c3ccco3)[nH]n2)cc1OC")
33.4
>>> measured("CC(/C=C/c1ccco1)=N\\NC(=O)CNc1ccc2ccccc2c1")
28.5

====

Target: UniProt:P15144
Experiment: Inhibition of alanyl aminopeptidase enzymatic activity, fluorogenic substrate (Ala)2-rhodamine 110
Assay type: biochemical
Conditions: Table 3, unstarred values; read-out: IC50APN
pIC50: −log10 of the molar value.
MEASUREMENT_LABEL: pIC50

>>> measured("CC(=O)C1C(c2ccc(N(C)C)cc2)C2C(=O)N(C3CCCCC3)C(=O)N2C1c1sccc1C (centres unmarked)")
4.17
>>> measured("COc1cc(-c2cc(C(=O)N/N=C/c3ccco3)[nH]n2)ccc1OC(C)C [A3.216a]")
4.44
>>> measured("CCOc1cc(/C=N/NC(=O)CNC(=O)c2cccc(Cl)c2)ccc1OC(=O)c1cccs1")
4.91
>>> measured("Cc1cc(C(=O)N/N=C/c2ccc(C)o2)[nH]n1")
4.50
>>> measured("COC(=O)C(NC(=O)c1ccccc1)(Nc1sc2c(c1C#N)CCC(C(C)(C)C)C2)C(F)(F)F (centres unmarked)")
4.36
>>> measured("Cc1cccc(C(=O)Nc2cccc(C(=O)N/N=C/c3ccc(C)o3)c2)c1 [A3.216b]")
4.44
>>> measured("O=C(Cn1cnc2ccccc21)N/N=C/c1ccco1")
4.36
>>> measured("Cc1ccc(/C=N/NC(=O)c2nnn(-c3nonc3N)c2CN2CCOCC2)o1")
4.57
>>> measured("Cc1ccc(/C=N/NC(=O)c2nnn(-c3nonc3N)c2-c2ccccc2)o1")
5.16
>>> measured("COc1ccc(C(=O)N/N=C/c2ccco2)cc1")
4.65
>>> measured("CCOC(=O)C1CCN(C(=O)/C(=C/c2ccco2)NC(=O)c2ccc(C)c(C)c2)CC1")
4.46
>>> measured("O=C(COc1ccccc1)N/N=C/c1ccco1")
4.06
>>> measured("COc1ccccc1-n1c(CCC(=O)O)ccc1-c1cccs1")
4.54
>>> measured("O=[N+]([O-])c1ncn(CCBr)n1")
4.39
>>> measured("COc1ccccc1C(=O)N/N=C/c1ccco1")
4.35
>>> measured("Cc1cc(C)cc(OCC(=O)N/N=C/c2ccco2)c1")
4.63
>>> measured("O=C1CNC(c2cccc([N+](=O)[O-])c2)N1O (centres unmarked)")
4.58
>>> measured("CCOc1ccc(S(=O)(=O)N2CCCCC2)cc1-c1nc2c(C(C)(C)C)nn(C)c2c(=O)[nH]1")
4.66
>>> measured("O=C(CNC(=O)c1ccccc1Br)N/N=C/c1ccoc1")
4.50
>>> measured("O=C(N/N=C/c1ccco1)c1cc(-c2ccco2)n[nH]1")
4.68

====

Molecular target: alanyl aminopeptidases (APN) (Homo sapiens)
Experiment: Inhibition of alanyl aminopeptidase enzymatic activity, fluorogenic substrate (Ala)2-rhodamine 110
Format: biochemical
Details: Table 6; read-out: IC50APN
pIC50: −log10 of the molar value.
Catalogue of pIC50 values
MEASUREMENT_LABEL: pIC50

>>> measured("Cc1ccc(S(=O)(=O)CNC(=S)c2ccc3ccccc3c2)cc1")
4.93
>>> measured("O=[N+](O)CC(c1ccccc1)P(=O)(c1ccccc1)c1ccccc1 (stereo not shown)")
4.79
>>> measured("N/C(=N/OS(=O)(=O)c1ccc(C(F)(F)F)cc1)C1CSCCS1 (stereo not shown)")
4.87
>>> measured("CC1CCN(S(=O)(=O)c2ccc3c(c2)C(Cl)(Cl)C(=O)N3)CC1")
4.43
>>> measured("Cc1ccc(/C=C/C(=O)Nc2ccc(S(=O)(=O)N3CCCC3)cc2)o1")
4.61
>>> measured("O=C(Nc1ccc(N=Nc2ccccc2)cc1)c1ccc(S(=O)(=O)N2CCCC2)cc1")
4.67
>>> measured("NNC(=O)c1ccc(NS(=O)(=O)c2cccs2)cc1")
4.93

====

Catalogue of pIC50 values
Biological target: alanyl aminopeptidases (APN) (Homo sapiens, UniProt P15144)
Test: Inhibition of alanyl aminopeptidase enzymatic activity, fluorogenic substrate (Ala)2-rhodamine 110
Assay type: biochemical
Settings: Table 11; read-out: IC50APN
pIC50: −log10 of the molar value.
MEASUREMENT_LABEL: pIC50

>>> measured("O=C(N/N=C/c1cc(Cl)cc([N+](=O)[O-])c1O)c1ccccc1O [A11.039]")
5.24
>>> measured("N#Cc1cc(N2CC3CC(C2)c2cccc(=O)n2C3)c([N+](=O)[O-])cc1C#N (stereo not drawn) [A11.004]")
5.05
>>> measured("O=[N+]([O-])c1ncn(CN2CCOCC2)n1 [A11.026]")
4.43
>>> measured("CCOC(=O)C(C#N)c1c([N+](=O)[O-])c(=O)n(-c2ccccc2)c2ccccc12 (stereo not drawn) [A11.022]")
4.52
>>> measured("O=C(N/N=C/c1cc([N+](=O)[O-])ccc1O)c1ccc(O)cc1O [A11.013]")
4.69
>>> measured("CC(C)C/C=N/NC(=O)c1ccc([N+](=O)[O-])cc1Cl [A11.010]")
4.81
>>> measured("CC(=O)Oc1ccc([N+](=O)[O-])cc1/C=N/NC(=O)COc1cc(C)ccc1C(C)C [A11.014]")
4.69
>>> measured("O=C(Nc1ccc(F)cc1)c1ccc([NH+]([O-])O)o1 (stereo not drawn) [A11.027]")
4.43
>>> measured("NCCCCCC(=O)C[N+](=O)[O-] [A11.025]")
4.48

====

Target: alanyl aminopeptidases (APN) (Homo sapiens)
Assay: Inhibition of alanyl aminopeptidase enzymatic activity, fluorogenic substrate (Ala)2-rhodamine 110
Format: biochemical
Settings: Table 3, unstarred values; read-out: IC50APN
Returns the class for an entry based on its IC50. Class ranges: 0 = under 30 µM, 1 = from 30 µM up to 50 µM, 2 = 50 µM and over

>>> qualitative_label("Cc1ccccc1S(=O)(=O)Nc1cccc(C(=O)N/N=C/c2ccco2)c1 [A3.097]")
0
>>> qualitative_label("O=C(N/N=C/c1cc(Br)ccc1OC(=O)c1ccc([N+](=O)[O-])cc1)/C(=C\\c1ccc2c(c1)OCO2)NC(=O)c1ccccc1 [A3.271]")
2
>>> qualitative_label("O=C(N/N=C/c1cccc([N+](=O)[O-])c1)c1ccco1 [A3.247]")
1
>>> qualitative_label("CC(/C=N/NC(=O)C(O)c1ccccc1)=C\\c1ccco1 (stereo not drawn) [A3.219]")
1
>>> qualitative_label("CC1=C(C#N)C(O)=NC(=O)/C1=C/c1ccc(-c2ccc(Cl)c(C(=O)OC(C)C)c2)o1 [A3.120]")
0
>>> qualitative_label("CC1CCN(C(=O)/C(=C\\c2ccco2)NC(=O)c2ccccc2)CC1 [A3.244]")
1
>>> qualitative_label("C/C(=N\\NC(=O)c1ccco1)c1ccc(C)o1 [A3.331]")
2
>>> qualitative_label("Cc1c(Cl)cccc1NC(=O)CCC(=O)N/N=C/c1ccco1 [A3.220]")
1
